Molecular target: T1, Human MuSK (R&D Systems, cat. 10189-MK, histidine tag) (human, UniProt O15146 24-495)
T1 construct: Bought protein; also called human monomeric MuSK-6xhis; not shown: histidine tag (6xhis)
T1 sequence: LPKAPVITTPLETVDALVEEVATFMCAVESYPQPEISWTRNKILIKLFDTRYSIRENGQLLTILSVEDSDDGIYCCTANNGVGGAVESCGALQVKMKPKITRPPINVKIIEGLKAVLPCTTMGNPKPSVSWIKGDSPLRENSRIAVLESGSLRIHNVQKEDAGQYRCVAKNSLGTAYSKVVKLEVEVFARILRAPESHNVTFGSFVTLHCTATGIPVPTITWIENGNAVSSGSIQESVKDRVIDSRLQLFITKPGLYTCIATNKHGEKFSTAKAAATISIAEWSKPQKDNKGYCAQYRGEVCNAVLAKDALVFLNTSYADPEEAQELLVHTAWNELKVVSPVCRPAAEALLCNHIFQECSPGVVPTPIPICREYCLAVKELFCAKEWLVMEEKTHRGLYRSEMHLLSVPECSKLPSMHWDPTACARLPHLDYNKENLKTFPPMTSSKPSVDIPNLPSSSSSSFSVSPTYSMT
Experiment: SPR (Biacore), MuSK-coated chip, antibody alone (run of first antibody 4D3)
Recorded metric: amplitude of prelead without presaturating MuSK (RU)

Illustrative cases are given below, each with its answer.
- Binder: "4D3 (antibody, human IgG1, kappa, L234A L235A, V domains shown) VH: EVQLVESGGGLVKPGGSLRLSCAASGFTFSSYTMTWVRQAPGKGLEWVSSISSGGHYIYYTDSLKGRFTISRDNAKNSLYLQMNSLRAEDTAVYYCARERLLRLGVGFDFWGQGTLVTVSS VL: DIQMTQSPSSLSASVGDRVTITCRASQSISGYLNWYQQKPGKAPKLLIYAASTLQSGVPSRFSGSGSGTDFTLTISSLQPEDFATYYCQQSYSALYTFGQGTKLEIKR"
  Result: "859 RU"
- Binder: "3B5 (antibody, V domains shown, also called 3B5wt) VH: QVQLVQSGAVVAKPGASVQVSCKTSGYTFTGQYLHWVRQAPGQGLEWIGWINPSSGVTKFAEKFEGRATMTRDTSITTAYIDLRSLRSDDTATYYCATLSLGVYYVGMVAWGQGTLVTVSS VL: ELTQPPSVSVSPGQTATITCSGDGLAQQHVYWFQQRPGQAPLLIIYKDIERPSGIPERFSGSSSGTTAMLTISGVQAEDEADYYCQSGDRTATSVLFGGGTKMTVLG"
  Result: "151 RU"
- Binder: "3F6c (antibody, human IgG1, kappa, L234A L235A, V domains shown) VH: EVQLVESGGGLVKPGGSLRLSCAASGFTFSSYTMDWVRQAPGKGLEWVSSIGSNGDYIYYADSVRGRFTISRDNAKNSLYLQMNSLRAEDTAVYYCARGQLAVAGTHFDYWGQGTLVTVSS VL: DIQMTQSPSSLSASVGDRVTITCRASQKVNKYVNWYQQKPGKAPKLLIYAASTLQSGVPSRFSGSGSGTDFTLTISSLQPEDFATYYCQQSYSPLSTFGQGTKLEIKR"
  Result: "1010 RU"

What value of measured amplitude of prelead without presaturating MuSK (RU) is listed for 3D9b (antibody, human IgG1, kappa, L234A L235A, V domains shown) VH: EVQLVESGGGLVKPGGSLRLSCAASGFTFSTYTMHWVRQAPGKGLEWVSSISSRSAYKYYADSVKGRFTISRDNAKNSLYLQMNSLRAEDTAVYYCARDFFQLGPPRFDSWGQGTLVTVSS VL: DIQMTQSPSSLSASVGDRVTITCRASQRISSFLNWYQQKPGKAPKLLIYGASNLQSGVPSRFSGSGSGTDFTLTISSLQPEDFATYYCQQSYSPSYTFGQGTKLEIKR ?
1100 RU

What value of measured amplitude of prelead without presaturating MuSK (RU) is listed for 3D10a (antibody, human IgG1, kappa, L234A L235A, V domains shown) VH: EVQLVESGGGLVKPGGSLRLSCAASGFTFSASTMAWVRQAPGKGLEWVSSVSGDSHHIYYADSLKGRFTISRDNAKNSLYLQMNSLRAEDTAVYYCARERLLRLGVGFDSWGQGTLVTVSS VL: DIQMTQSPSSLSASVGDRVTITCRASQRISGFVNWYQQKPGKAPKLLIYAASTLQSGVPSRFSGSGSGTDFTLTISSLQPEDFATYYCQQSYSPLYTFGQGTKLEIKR ?
951 RU

Source: patent US20230110188A1
